ASSAY_SUMMARY: viability loss in pontine glioma line – cell-based, SU-DIPG-XIII, MIPE5.0, CellTiter-Glo, qHTS, dose response (AID 1347064);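 for AC50: cells exposed to compound for 48 hours before the viability read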
ASSAY_CONTEXT: CellTiter-Glo ATP luminescence
Records with an inconclusive call do not appear. Calls of active or inactive are those of the source. No cut-off is given here; in the data, nearly all actives have AC50 up to about 23 µM.
Please reply with one of these outcomes: true (1) = active, false (0) = inactive

# input Please share the test call associated with C/C=C/C/C=C/CCC(=O)[C@H]1O[C@H]1C(N)=O .
# output true (1)

# input Note, next up: Cc1ccc(F)c(NC(=O)Nc2ccc(-c3cccc4[nH]nc(N)c34)cc2)c1
# output true (1)

# input Note, next up: O=C(/C=C/C#Cc1cccc(NS(=O)(=O)c2ccccc2)c1)NO
# output true (1)

# input Note, next up: CCc1cc2c(c(OCC(F)(F)F)c(C(=O)NC3CCN(C(=O)CO)CC3)n2C)c(=O)n1CC(=O)c1ccccc1
# output false (0)

# input Note, next up: COc1cc(OC2CCN(C)CC2)ccc1Nc1ncc2c(n1)n(C1CCCC1)c(=O)n2C
# output true (1)
